Target: T1, cTnI quality control product recombinant protein (human, UniProt P19429 1-210, limits assumed)
T1 construct: the assay paragraphs only say cTnI; also called cardiac troponin I; cTnI antigen
T1 sequence (P19429 whole entry): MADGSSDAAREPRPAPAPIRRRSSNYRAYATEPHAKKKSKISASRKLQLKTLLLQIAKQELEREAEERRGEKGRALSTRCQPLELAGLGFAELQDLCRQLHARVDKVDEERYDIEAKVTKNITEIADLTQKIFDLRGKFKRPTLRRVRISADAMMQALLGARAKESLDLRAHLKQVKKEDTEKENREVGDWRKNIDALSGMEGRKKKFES
Assay: AMC biosensor, antibody on sensor
This listing pairs binders with measured koff.
Please give a number only; it is taken to be in s⁻¹.

See these solved cases before continuing.
-- ask Would you mind telling me what koff value was observed for Mutation 1-31 (antibody, V domains shown) VH: QVQLQQSGTELAKPGASVKFSCKASGYTFTTYWMYWIKQRPGQGLEWIGYINPSTGHTDYNQKFKDKATLTADKSSSTAYMQLNSLTSEDSAVYYCARRYYGPFGMDYWGQGTSVTVSS VL: EIFLTQSPAIMSASPGEKVTMTCSASSSVSYVHWYQQKSGTSPKRWIYDTSKLASGIPVRFSGSGSGTSYSLTISSMEAEDAATYYCQQWSSNPYTFGGGTKLEIKR ?
-- reply 0.000365

-- ask Would you mind telling me what koff value was observed for Mutation 1-47 (antibody, V domains shown) VH: QVQLQQSGTELAKPGASVKFSCKASGYTFTTYWMYWIKQRPGQGLEWIGYLNPSTGHTDYNQKFKDKATLTADKSSSTAYMQLNSLTSEDSAVYYCARRYYGPFGMDYWGQGTSVTVSS VL: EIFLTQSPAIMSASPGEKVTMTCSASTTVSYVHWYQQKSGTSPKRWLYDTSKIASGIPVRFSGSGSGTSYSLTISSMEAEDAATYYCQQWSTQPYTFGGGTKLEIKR ?
-- reply 6.94e-05

-- ask Would you mind telling me what koff value was observed for Mutation 1-50 (antibody, V domains shown) VH: QVQLQQSGTELAKPGASVKFSCKASGYTFTSYWMYWIKQRPGQGLEWIGYLNPSTGHTDYNQKFKDKATLTADKSSSTAYMQLNSLTSEDSAVYYCARRYWGPFGMDYWGQGTSVTVSS VL: EIFLTQSPAIMSASPGEKVTMTCSASTTVSYVHWYQQKSGTSPKRWIYDTSKLASGIPVRFSGSGSGTSYSLTISSMEAEDAATYYCQQWSSNPYTFGGGTKLEIKR ?
-- reply 1.11e-05

-- ask Would you mind telling me what koff value was observed for Mutation 1-28 (antibody, V domains shown) VH: QVQLQQSGTELAKPGASVKFSCKASGYTFSTYWMYWIKQRPGQGLEWIGYLNPSTGHTDYNQRFKDKATLTADKSSSTAYMQLNSLTSEDSAVYYCARKYYGPFGMDYWGQGTSVTVSS VL: EIFLTQSPAIMSASPGEKVTMTCSASTTVSYVHWYQQKSGTSPKRWLYDTSKIASGIPVRFSGSGSGTSYSLTISSMEAEDAATYYCQQWSSNPYTFGGGTKLEIKR ?
-- reply 1.39e-05

Now, please, on to the next binder.
-- ask Would you mind telling me what koff value was observed for WT 1-1 (antibody, V domains shown) VH: QVQLQQSGTELAKPGASVKFSCKASDYTFSTYWMYWIKQRPGQGLEWIGYINPSTGHTEYNQKFKDKATLTADKSSSTAYMQLNSLTSEDSAVYYCARRYYGPFAMDYWGQGTSVTVSS VL: EIFLTQSPAIMSASPGEKVTMTCSASSSVSYAHWYQQKSGTSPKRWIYDSSKIASGIPVRFSGSGSGTSYSLTISSMEAEDAATYYCQNWSTNPYTFGGGTKLEIKR ?
-- reply 0.00165
